system: Canis familiaris; test: AUC in dog at 1 mg/kg, iv and 4 mg/kg, po; format: ADME, organism-based, Canis lupus familiaris, Plasma; conditions: in vivo
measurement type: AUC (µM·h)
Write the answer as a number in µM·h, unit excluded.

## Input Would you mind telling me what AUC value was observed for C=C[C@@H]1C[C@]1(NC(=O)[C@@H]1C[C@@H](Oc2cc(-c3csc(NC(C)C)n3)nc3cc(OC)ccc23)CN1C(=O)[C@@H](NC(=O)OC1CCCC1)C(C)(C)C)P(=O)(O)Cc1c(F)cccc1F ?
## Output 3.12

* * *

test: Drug excretion in iv dosed bile-cannulated rat bile assessed as parent compound level after 4 hrs; assay type: ADME, organism-based; conditions: read-out: Ae
measurement type: dose excreted at 4 h (%)
Write the answer as a number in %, unit excluded.

## Input Would you mind telling me what dose excreted at 4 h value was observed for COc1ccc2c(O[C@@H]3C[C@H]4C(=O)N[C@]5(P(=O)(O)Cc6c(F)cccc6F)C[C@H]5CCCCCCC[C@H](NC(=O)OC5CCCC5)C(=O)N4C3)cc(-c3csc(NC(C)C)n3)nc2c1Cl ?
## Output 95

* * *

experiment: Dissociation constant, pKa of the compound; assay type: physicochemical
measurement type: pKa
Reply: number alone, nothing else.

## Input Would you mind telling me what pKa value was observed for C=C[C@@H]1C[C@]1(NC(=O)[C@@H]1C[C@@H](Oc2cc(-c3csc(NC(C)C)n3)nc3cc(OC)ccc23)CN1C(=O)[C@@H](NC(=O)OC1CCCC1)C(C)(C)C)P(=O)(O)Cc1c(F)cccc1F ?
## Output 2.7

* * *

experiment: Oral bioavailability in dog at 4 mg/kg; format: ADME, organism-based, Canis lupus familiaris; details: in vivo
Label N if bioavailability falls below 6%; label Y in every other case.

## Input # check: bioavailability of C=C[C@@H]1C[C@]1(NC(=O)[C@@H]1C[C@@H](Oc2cc(-c3csc(NC(C)C)n3)nc3cc(OC)ccc23)CN1C(=O)[C@@H](NC(=O)OC1CCCC1)C(C)(C)C)P(=O)(O)Cc1c(F)cccc1F is greater than or equal to 6%
## Output Y

## Input # check: bioavailability of COc1ccc2c(O[C@@H]3C[C@H]4C(=O)N[C@]5(P(=O)(O)Cc6c(F)cccc6F)C[C@H]5CCCCCCC[C@H](NC(=O)OC5CCCC5)C(=O)N4C3)cc(-c3csc(NC(C)C)n3)nc2c1Br is greater than or equal to 6%
## Output N

## Input # check: bioavailability of COc1ccc2c(O[C@@H]3C[C@H]4C(=O)N[C@]5(P(=O)(O)Cc6c(F)cccc6F)C[C@H]5CCCCCCC[C@H](NC(=O)OC5CCCC5)C(=O)N4C3)cc(-c3csc(NC(C)C)n3)nc2c1Cl is greater than or equal to 6%
## Output Y

## Input # check: bioavailability of COc1ccc2c(O[C@@H]3C[C@H]4C(=O)N[C@]5(P(=O)(O)Cc6c(F)cccc6F)C[C@H]5CCCCCCC[C@H](NC(=O)OC5CCCC5)C(=O)N4C3)cc(-c3csc(NC(C)C)n3)nc2c1 is greater than or equal to 6%
## Output N

* * *

assay: Half life in human; format: ADME, organism-based; details: in vivo
measurement type: half-life (h)
Write the answer as a number in h, unit excluded.

## Input Would you mind telling me what half-life value was observed for COc1ccc2c(O[C@@H]3C[C@H]4C(=O)N[C@]5(P(=O)(O)Cc6c(F)cccc6F)C[C@H]5CCCCCCC[C@H](NC(=O)OC5CCCC5)C(=O)N4C3)cc(-c3csc(NC(C)C)n3)nc2c1Cl ?
## Output 7

* * *

assay: Permeability from apical to basolateral side in human Caco2 cells; format: ADME, cell-based; conditions: Caco-2, read-out: permeability
Label F if Papp A→B falls below 5 nm/s; label T in every other case.

Worked examples follow.
| molecule smiles | class |
| --- | --- |
| C=C[C@@H]1C[C@]1(NC(=O)[C@@H]1C[C@@H](Oc2cc(-c3csc(NC(C)C)n3)nc3cc(OC)ccc23)CN1C(=O)[C@@H](NC(=O)OC1CCCC1)C(C)(C)C)P(=O)(O)Cc1c(F)cccc1F | T |
| C=C[C@@H]1C[C@]1(NC(=O)[C@@H]1C[C@@H](Oc2cc(-c3csc(NC(C)C)n3)nc3cc(OC)ccc23)CN1C(=O)[C@@H](NC(=O)OC1CCCC1)C(C)(C)C)P(=O)(O)Cc1c(F)cccc1Cl | T |
| C=C[C@@H]1C[C@]1(NC(=O)[C@@H]1C[C@@H](Oc2cc(-c3csc(NC(C)C)n3)nc3cc(OC)ccc23)CN1C(=O)[C@@H](NC(=O)OC1CCCC1)C(C)(C)C)P(=O)(O)Cc1ccc(C)cc1 | T |
| C=C[C@@H]1C[C@]1(NC(=O)[C@@H]1C[C@@H](Oc2cc(-c3csc(NC(C)C)n3)nc3cc(OC)ccc23)CN1C(=O)[C@@H](NC(=O)OC1CCCC1)C(C)(C)C)P(=O)(O)Cc1ccc(F)cc1 | T |
| C=C[C@@H]1C[C@]1(NC(=O)[C@@H]1C[C@@H](Oc2cc(-c3csc(NC(C)C)n3)nc3cc(OC)ccc23)CN1C(=O)[C@@H](NC(=O)OC1CCCC1)C(C)(C)C)P(=O)(O)Cc1cccc(C)c1 | T |

## Input # check: Papp A→B of C=C[C@@H]1C[C@]1(NC(=O)[C@@H]1C[C@@H](Oc2cc(-c3csc(NC(C)C)n3)nc3cc(OC)ccc23)CN1C(=O)[C@@H](NC(=O)OC1CCCC1)C(C)(C)C)P(=O)(O)Cc1cccc(F)c1 is greater than or equal to 5 nm/s
## Output F

## Input # check: Papp A→B of C=C[C@@H]1C[C@]1(NC(=O)[C@@H]1C[C@@H](Oc2cc(-c3csc(NC(C)C)n3)nc3cc(OC)ccc23)CN1C(=O)[C@@H](NC(=O)OC1CCCC1)C(C)(C)C)P(=O)(O)Cc1c(C)cccc1C is greater than or equal to 5 nm/s
## Output F

## Input # check: Papp A→B of C=C[C@@H]1C[C@]1(NC(=O)[C@@H]1C[C@@H](Oc2cc(-c3csc(NC(C)C)n3)nc3cc(OC)ccc23)CN1C(=O)[C@@H](NC(=O)OC1CCCC1)C(C)(C)C)P(=O)(O)Cc1c(F)cccc1C(F)(F)F is greater than or equal to 5 nm/s
## Output T

## Input # check: Papp A→B of C=C[C@@H]1C[C@]1(NC(=O)[C@@H]1C[C@@H](Oc2cc(-c3csc(NC(C)C)n3)nc3cc(OC)ccc23)CN1C(=O)[C@@H](NC(=O)OC1CCCC1)C(C)(C)C)P(=O)(O)Cc1ccccc1F is greater than or equal to 5 nm/s
## Output T

## Input # check: Papp A→B of C=C[C@@H]1C[C@]1(NC(=O)[C@@H]1C[C@@H](Oc2cc(-c3csc(NC(C)C)n3)nc3cc(OC)ccc23)CN1C(=O)[C@@H](NC(=O)OC1CCCC1)C(C)(C)C)P(=O)(O)Cc1ccccc1OC is greater than or equal to 5 nm/s
## Output F

* * *

test: Permeability from basolateral to apical side in human Caco2 cells; type: ADME, cell-based; conditions: Caco-2, read-out: permeability
measurement type: Papp B→A (×10⁻⁶ cm/s)
Write the answer as a number in ×10⁻⁶ cm/s, unit excluded.

| molecule smiles | measurement type | experimental result |
| --- | --- | --- |
| C=C[C@@H]1C[C@]1(NC(=O)[C@@H]1C[C@@H](Oc2cc(-c3csc(NC(C)C)n3)nc3cc(OC)ccc23)CN1C(=O)[C@@H](NC(=O)OC1CCCC1)C(C)(C)C)P(=O)(O)Cc1c(F)cccc1Cl | Papp B→A | 5.87 |

## Input Would you mind telling me what Papp B→A value was observed for C=C[C@@H]1C[C@]1(NC(=O)[C@@H]1C[C@@H](Oc2cc(-c3csc(NC(C)C)n3)nc3cc(OC)ccc23)CN1C(=O)[C@@H](NC(=O)OC1CCCC1)C(C)(C)C)P(=O)(O)Cc1c(F)cccc1C(F)(F)F ?
## Output 6.36

## Input Would you mind telling me what Papp B→A value was observed for C=C[C@@H]1C[C@]1(NC(=O)[C@@H]1C[C@@H](Oc2cc(-c3csc(NC(C)C)n3)nc3cc(OC)ccc23)CN1C(=O)[C@@H](NC(=O)OC1CCCC1)C(C)(C)C)P(=O)(O)Cc1ccccc1OC ?
## Output 6.2

## Input Would you mind telling me what Papp B→A value was observed for C=C[C@@H]1C[C@]1(NC(=O)[C@@H]1C[C@@H](Oc2cc(-c3csc(NC(C)C)n3)nc3cc(OC)ccc23)CN1C(=O)[C@@H](NC(=O)OC1CCCC1)C(C)(C)C)P(=O)(O)Cc1c(F)cccc1F ?
## Output 10.6

## Input Would you mind telling me what Papp B→A value was observed for C=C[C@@H]1C[C@]1(NC(=O)[C@@H]1C[C@@H](Oc2cc(-c3csc(NC(C)C)n3)nc3cc(OC)ccc23)CN1C(=O)[C@@H](NC(=O)OC1CCCC1)C(C)(C)C)P(=O)(O)Cc1cccc(OC)c1 ?
## Output 8.28
